B1: ADD1 (parent)
chain: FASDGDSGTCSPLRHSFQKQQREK

# Variants of: B1
# ASSAY TEXT: protein stability index of a GFP-peptide fusion (GPS, HEK-293T) (PSI 1-6); higher = more stable;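 further: lentivirally expressed fusions sorted by FACS into six bins by GFP to DsRed ratio, PSI derived from sequencing read proportions per bin multiplied by bin number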
# TEST PARAMETERS: c terminus: a fixed tail appended
Please assign a class to every record based on measured protein stability index, with ranges low interval = under 3, middle interval = from 3 up to 4, high interval = 4 and over

Completed entries (count: 4):
S16F :: low interval
D4I :: low interval
R22I :: middle interval
A2T :: high interval

Given S16H , name the class its protein stability index places it in. high interval

Given H15E , name the class its protein stability index places it in. high interval
